Test system: 5-HT2C receptor relative to 5-HT2A and D2 receptors
assayExplanation: Relative 5-HT2C affinity (formula I, sum of 5-HT2C/5-HT2A and 5-HT2C/D2 affinity ratios)
runParameters: Table 3; calculated from known 5-HT2C/5-HT2A/D2 affinities
Measured Formula I Affinity Ratio by item
Answer with the value's number alone.

Worked examples, 2 compounds total:
>>> print(df.to_string())
                                   compound               readoutname  obsvalue
0           CN(C)CCSc1nc2ccccc2cc1-c1ccccc1  Formula I Affinity Ratio      2.27
1  CNCCO[C@]1(c2ccccc2)C[C@H]2CC[C@]1(C)C2(C)C  Formula I Affinity Ratio      2.20

### Prompt Provide one value: measured Formula I Affinity Ratio of CN(C)CCO[C@]1(c2ccccc2)C[C@H]2CC[C@]1(C)C2(C)C.O=C(O)/C=C/C(=O)O
### Response 2.09

### Prompt Provide one value: measured Formula I Affinity Ratio of CCCN1CCC[C@H]2c3c(OC)cccc3OC[C@@H]21.Cl (stereo in doubt) [CGS-18102A]
### Response 2.06

### Prompt Provide one value: measured Formula I Affinity Ratio of COc1cc(OC)c(C(=O)CCCCN2CCC3(CC2)NC(=O)NC3=O)cc1NS(=O)(=O)c1ccc(C(F)(F)F)cc1
### Response 2.78
